# IC50 per entry
Tested on: IST-SL2;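 further: growth inhibition of human IST-SL2 cells, read out by a cell viability assay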
assay_procedure: cells
Format: functional, cell-based
assay_conditions: Homo sapiens
Description: SANGER: Inhibition of human IST-SL2 cell growth in a cell viability assay.

CN1CCN(CCOc2cc(OC3CCOCC3)c3c(Nc4c(Cl)ccc5c4OCO5)ncnc3c2)CC1
> 2000 nM
CO[C@H]1C[C@@H]2CC[C@@H](C)[C@@](O)(O2)C(=O)C(=O)N2CCCC[C@H]2C(=O)O[C@H]([C@H](C)C[C@@H]2CC[C@@H](O)[C@H](OC)C2)CC(=O)[C@H](C)/C=C(\C)[C@@H](O)[C@@H](OC)C(=O)[C@H](C)C[C@H](C)/C=C/C=C/C=C/1C
> 100 nM
Cn1cncc1[C@@](N)(c1ccc(Cl)cc1)c1ccc2c(c1)c(-c1cccc(Cl)c1)cc(=O)n2C
13300 nM
CS(=O)(=O)CCNCc1ccc(-c2ccc3ncnc(Nc4ccc(OCc5cccc(F)c5)c(Cl)c4)c3c2)o1
> 2000 nM
CCC(=O)N1CCN(c2ccc(-n3c(=O)ccc4cnc5ccc(-c6cnc7ccccc7c6)cc5c43)cc2C(F)(F)F)CC1
53.6 nM
Cc1cc(Nc2cc(N3CCN(C)CC3)nc(Sc3ccc(NC(=O)C4CC4)cc3)n2)n[nH]1
720 nM

*Q* Give the measured IC50 of "C[C@]1(O)C[C@@H](c2nc(-c3ccc4ccc(-c5ccccc5)nc4c3)c3c(N)nccn32)C1" .
*A* > 2560 nM

*Q* # iterate: C=C1C(=O)O[C@@H]2C3O[C@]3(C)CC/C=C(\C)CC[C@@H]12 (stereo partly drawn)
*A* > 5000 nM

Data origin: ChEMBL document CHEMBL1201861
